# Experimental target: Sorghum bicolor SbTyrAnc (non-canonical TyrA), SEQ ID NO: 43, recombinant (Sorghum bicolor)
# Construct: from cDNA
# Sequence (C5Z447 56-382): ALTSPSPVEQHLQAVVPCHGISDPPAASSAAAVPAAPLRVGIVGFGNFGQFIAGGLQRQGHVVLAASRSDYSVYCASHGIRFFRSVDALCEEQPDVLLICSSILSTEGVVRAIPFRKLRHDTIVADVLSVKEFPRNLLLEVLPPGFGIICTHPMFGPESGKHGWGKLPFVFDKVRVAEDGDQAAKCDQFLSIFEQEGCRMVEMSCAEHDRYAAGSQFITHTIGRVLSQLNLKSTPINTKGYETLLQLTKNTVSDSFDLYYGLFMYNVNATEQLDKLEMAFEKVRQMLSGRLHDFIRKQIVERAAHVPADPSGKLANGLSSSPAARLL
# Protocol notes: TyrA arogenate dehydrogenase kinetics and tyrosine inhibition (340 nm)

Smiles repr	IC50
N[C@@H](Cc1ccc(O)cc1)C(=O)O	406 µM

---

# Experimental target: Brachypodium distachyon BdTyrAnc (non-canonical TyrA), SEQ ID NO: 37, recombinant (Brachypodium distachyon, UniProt I1GYB3)
# Construct: from cDNA
# Sequence (I1GYB3 58-361): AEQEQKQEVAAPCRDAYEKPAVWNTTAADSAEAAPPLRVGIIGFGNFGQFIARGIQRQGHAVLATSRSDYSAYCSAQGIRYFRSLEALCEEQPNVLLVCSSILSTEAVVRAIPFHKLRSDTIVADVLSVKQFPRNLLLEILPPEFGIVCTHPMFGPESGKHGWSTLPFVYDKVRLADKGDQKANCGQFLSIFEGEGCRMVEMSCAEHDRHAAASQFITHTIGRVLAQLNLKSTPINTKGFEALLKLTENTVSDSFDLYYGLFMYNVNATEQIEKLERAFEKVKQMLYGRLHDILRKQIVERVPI
# Protocol notes: TyrA arogenate dehydrogenase kinetics and tyrosine inhibition (340 nm)
# Setup conditions: calculated from Km and IC50, competitive inhibition model
Property name: Ki

Compound	Observed measurement
N[C@@H](Cc1ccc(O)cc1)C(=O)O [tyrosine]	64 µM

---

# Experimental target: Brachypodium distachyon BdTyrA1, SEQ ID NO: 33, recombinant (Brachypodium distachyon)
# Construct: from genomic DNA
# Protocol notes: TyrA arogenate dehydrogenase kinetics and tyrosine inhibition (340 nm)
# Setup conditions: IC50 (tyrosine), 0.5 mM arogenate, 1 mM NADP^+
pIC50: −log10 of the molar value.

Compound	pIC50
N[C@@H](Cc1ccc(O)cc1)C(=O)O [tyrosine]	4.18

---

# Experimental target: Sorghum bicolor SbTyrA2, SEQ ID NO: 41, recombinant (Sorghum bicolor, UniProt C5Z9D2)
# Construct: from genomic DNA
# Sequence (C5Z9D2 53-389): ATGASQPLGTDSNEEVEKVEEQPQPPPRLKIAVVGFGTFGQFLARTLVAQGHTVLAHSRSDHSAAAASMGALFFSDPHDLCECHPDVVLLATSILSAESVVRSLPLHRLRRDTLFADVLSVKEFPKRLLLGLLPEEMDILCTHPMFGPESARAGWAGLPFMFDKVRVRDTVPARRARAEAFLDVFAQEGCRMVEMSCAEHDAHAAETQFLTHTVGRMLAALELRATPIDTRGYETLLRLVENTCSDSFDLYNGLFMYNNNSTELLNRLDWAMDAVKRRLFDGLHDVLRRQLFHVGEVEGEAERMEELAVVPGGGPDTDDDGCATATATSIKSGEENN
# Protocol notes: TyrA arogenate dehydrogenase kinetics and tyrosine inhibition (340 nm)
pIC50: −log10 of the molar value.

Compound	pIC50
N[C@@H](Cc1ccc(O)cc1)C(=O)O [tyrosine]	4.33

---

# Experimental target: Brachypodium distachyon BdDHS1b, SEQ ID NO: 3, recombinant (Brachypodium distachyon, UniProt I1H4W3)
# Sequence (I1H4W3 37-542): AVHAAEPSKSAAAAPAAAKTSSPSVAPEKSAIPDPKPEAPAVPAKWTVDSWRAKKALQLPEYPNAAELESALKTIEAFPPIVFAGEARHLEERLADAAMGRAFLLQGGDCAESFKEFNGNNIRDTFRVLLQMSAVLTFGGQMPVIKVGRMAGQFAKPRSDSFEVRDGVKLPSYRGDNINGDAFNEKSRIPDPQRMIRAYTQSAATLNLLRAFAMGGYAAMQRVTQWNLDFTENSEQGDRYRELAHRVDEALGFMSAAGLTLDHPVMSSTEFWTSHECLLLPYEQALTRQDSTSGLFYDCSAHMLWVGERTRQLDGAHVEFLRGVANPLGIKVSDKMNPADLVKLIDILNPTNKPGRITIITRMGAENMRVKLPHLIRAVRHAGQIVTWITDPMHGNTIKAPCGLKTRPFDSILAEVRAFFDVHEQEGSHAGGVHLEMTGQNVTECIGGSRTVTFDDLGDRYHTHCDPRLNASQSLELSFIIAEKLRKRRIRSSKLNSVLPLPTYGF
# Protocol notes: DHS activity: kinetics and effector inhibition
# Format: biochemical
# Setup conditions: read-out: IC50 (tryptophan)
pIC50: −log10 of the molar value.

Smiles repr	pIC50
N[C@@H](Cc1c[nH]c2ccccc12)C(=O)O	< 3.30

---

# Experimental target: Brachypodium distachyon BdDHS1b, SEQ ID NO: 3, recombinant (Brachypodium distachyon, UniProt I1H4W3)
# Protocol notes: DHS activity: kinetics and effector inhibition
# Format: biochemical
# Setup conditions: read-out: IC50 (arogenate)
pIC50: −log10 of the molar value.
Property name: pIC50

Compound	Property name	Observed measurement
N[C@@H](CC1(C(=O)O)C=CC(O)C=C1)C(=O)O (stereo partly shown) [arogenate]	pIC50	< 3.30

---

# Experimental target: Brachypodium distachyon BdTyrAnc (non-canonical TyrA), SEQ ID NO: 37, recombinant (Brachypodium distachyon, UniProt I1GYB3)
# Construct: from cDNA
# Protocol notes: TyrA arogenate dehydrogenase kinetics and tyrosine inhibition (340 nm)
# Setup conditions: IC50 (tyrosine), 0.5 mM arogenate, 1 mM NADP^+

Compound	IC50
N[C@@H](Cc1ccc(O)cc1)C(=O)O [tyrosine]	242 µM

---

# Experimental target: Brachypodium distachyon BdDHS1a, SEQ ID NO: 1, recombinant (Brachypodium distachyon)
# Sequence (I1GSB3 46-537): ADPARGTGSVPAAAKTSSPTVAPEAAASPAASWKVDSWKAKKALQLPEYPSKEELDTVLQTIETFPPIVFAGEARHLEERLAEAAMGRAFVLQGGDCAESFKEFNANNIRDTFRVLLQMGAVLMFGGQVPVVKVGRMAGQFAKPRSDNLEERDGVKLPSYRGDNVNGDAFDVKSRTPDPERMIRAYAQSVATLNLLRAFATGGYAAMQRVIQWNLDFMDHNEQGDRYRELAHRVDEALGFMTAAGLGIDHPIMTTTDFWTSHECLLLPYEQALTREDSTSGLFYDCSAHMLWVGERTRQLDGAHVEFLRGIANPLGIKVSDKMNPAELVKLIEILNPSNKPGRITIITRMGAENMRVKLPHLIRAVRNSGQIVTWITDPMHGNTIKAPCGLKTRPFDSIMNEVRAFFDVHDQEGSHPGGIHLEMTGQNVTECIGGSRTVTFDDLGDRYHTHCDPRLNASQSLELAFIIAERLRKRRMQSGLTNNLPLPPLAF
# Protocol notes: DHS activity: kinetics and effector inhibition
# Setup conditions: IC50 (tryptophan), 1.5 mM PEP, 2 mM E4P
Property name: IC50

Smiles repr	Property name	Observed measurement
N[C@@H](Cc1c[nH]c2ccccc12)C(=O)O	IC50	> 500 µM

---

# Experimental target: Sorghum bicolor SbTyrA1, SEQ ID NO: 39, recombinant (Sorghum bicolor)
# Construct: from genomic DNA
# Sequence (A0A194YLK4 475-836): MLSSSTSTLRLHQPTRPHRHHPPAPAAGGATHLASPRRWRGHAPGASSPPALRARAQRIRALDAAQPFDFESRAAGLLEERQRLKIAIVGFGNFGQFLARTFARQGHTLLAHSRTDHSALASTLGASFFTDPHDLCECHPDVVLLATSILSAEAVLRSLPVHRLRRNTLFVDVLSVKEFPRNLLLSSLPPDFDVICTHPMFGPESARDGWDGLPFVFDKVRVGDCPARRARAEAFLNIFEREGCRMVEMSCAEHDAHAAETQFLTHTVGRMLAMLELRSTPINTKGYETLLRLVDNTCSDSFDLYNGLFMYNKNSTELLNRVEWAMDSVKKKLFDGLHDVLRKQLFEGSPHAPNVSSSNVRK
# Protocol notes: TyrA arogenate dehydrogenase kinetics and tyrosine inhibition (340 nm)
pKi: −log10 of the molar value.

Compound	pKi
N[C@@H](Cc1ccc(O)cc1)C(=O)O [tyrosine]	4.28

---

# Experimental target: Sorghum bicolor SbTyrAnc (non-canonical TyrA), SEQ ID NO: 43, recombinant (Sorghum bicolor)
# Construct: from cDNA
# Protocol notes: TyrA arogenate dehydrogenase kinetics and tyrosine inhibition (340 nm)
pKi: −log10 of the molar value.

Smiles repr	pKi
N[C@@H](Cc1ccc(O)cc1)C(=O)O	3.86

---

# Experimental target: Brachypodium distachyon BdTyrA1, SEQ ID NO: 33, recombinant (Brachypodium distachyon, UniProt A0A2K2DMR9)
# Construct: from genomic DNA
# Sequence (A0A2K2DMR9 539-925): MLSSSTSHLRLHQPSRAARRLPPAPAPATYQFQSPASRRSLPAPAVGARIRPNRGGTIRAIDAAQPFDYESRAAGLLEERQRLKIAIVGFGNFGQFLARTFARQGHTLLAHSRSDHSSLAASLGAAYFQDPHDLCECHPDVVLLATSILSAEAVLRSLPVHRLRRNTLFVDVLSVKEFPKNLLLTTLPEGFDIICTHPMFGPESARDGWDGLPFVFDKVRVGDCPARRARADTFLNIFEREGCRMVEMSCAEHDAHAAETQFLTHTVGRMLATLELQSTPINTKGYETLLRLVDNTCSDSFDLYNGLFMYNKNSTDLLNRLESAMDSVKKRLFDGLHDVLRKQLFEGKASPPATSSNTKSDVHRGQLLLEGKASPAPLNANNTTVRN
# Protocol notes: TyrA arogenate dehydrogenase kinetics and tyrosine inhibition (340 nm)

Smiles repr	Reading unit	Ki
N[C@@H](Cc1ccc(O)cc1)C(=O)O	µM	46
